experiment: IANBD-channel fluorescence artefacts in buffer – biochemical, artefact control for cardiac RTF calcium sensitizer project, confirmation (AID 504382); conditions: IANBD fluorescence interference counterscreen, EC20 Ca2+, at 7.2 µM, scaled: EC20 calcium 0, EC100 calcium 100
Out of some 2,500 compounds screened, about 460 (18%) were called active.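 Rule for the calls: active = mean activation above a cutoff of low control average plus 3 SD from the earlier screen (cut at about 12% in these data); inactive = the rest.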 Only a sample is shown.
Labels: active, inactive

| Compound | Answer label |
| --- | --- |
| COc1ccccc1/C=[N+](\[O-])C1SC(=S)N(C)C1(C)C (configuration not stated) | inactive |
| CCC(=O)Nc1ccc(NC(=S)NC(=O)c2oc3ccccc3c2C)cc1 | inactive |
| O=C(CN1C(=O)c2ccccc2C1=O)NCc1ccc(N2CCOCC2)cc1 | inactive |
| COc1ccc(S(=O)(=O)Nc2cc(C)on2)cc1 | active |
| CC1C2(C)OC(=N)C(C#N)(C(C)O2)C1(C#N)C#N (configuration not stated) | inactive |
| COc1ccc(NC(=O)c2cc(C)on2)cc1OC | inactive |
| Cn1c(=O)cc(N)n(Cc2ccccc2)c1=O | active |
| CN1C(=O)/C(=C\c2ccc(N(C)C)cc2)OC1=S | active |
| CCOC(=O)c1c(=O)n(O)c2ccc(OC)cc2[n+]1[O-] | inactive |
| COc1cc(C2C=C(c3cccs3)Nc3ncnn32)cc(OC)c1OC (configuration not stated) | inactive |
| CN(C)c1ccc(/C=C2\N=C(C(C)(C)C)OC2=O)cc1 | inactive |
| CCOC(=O)/C(=C/C=C1\Sc2cc(OCC)c(OCC)cc2N1CC)C(C)=O | inactive |
